test-system: T1, MUC1 on HCT116/MUC1 cells (UniProt P15941 24-1255, limits assumed)
T1 construct: whole, on cells; also called MUC1 overexpressed cell line
T1 sequence (P15941 24-1255 limits assumed): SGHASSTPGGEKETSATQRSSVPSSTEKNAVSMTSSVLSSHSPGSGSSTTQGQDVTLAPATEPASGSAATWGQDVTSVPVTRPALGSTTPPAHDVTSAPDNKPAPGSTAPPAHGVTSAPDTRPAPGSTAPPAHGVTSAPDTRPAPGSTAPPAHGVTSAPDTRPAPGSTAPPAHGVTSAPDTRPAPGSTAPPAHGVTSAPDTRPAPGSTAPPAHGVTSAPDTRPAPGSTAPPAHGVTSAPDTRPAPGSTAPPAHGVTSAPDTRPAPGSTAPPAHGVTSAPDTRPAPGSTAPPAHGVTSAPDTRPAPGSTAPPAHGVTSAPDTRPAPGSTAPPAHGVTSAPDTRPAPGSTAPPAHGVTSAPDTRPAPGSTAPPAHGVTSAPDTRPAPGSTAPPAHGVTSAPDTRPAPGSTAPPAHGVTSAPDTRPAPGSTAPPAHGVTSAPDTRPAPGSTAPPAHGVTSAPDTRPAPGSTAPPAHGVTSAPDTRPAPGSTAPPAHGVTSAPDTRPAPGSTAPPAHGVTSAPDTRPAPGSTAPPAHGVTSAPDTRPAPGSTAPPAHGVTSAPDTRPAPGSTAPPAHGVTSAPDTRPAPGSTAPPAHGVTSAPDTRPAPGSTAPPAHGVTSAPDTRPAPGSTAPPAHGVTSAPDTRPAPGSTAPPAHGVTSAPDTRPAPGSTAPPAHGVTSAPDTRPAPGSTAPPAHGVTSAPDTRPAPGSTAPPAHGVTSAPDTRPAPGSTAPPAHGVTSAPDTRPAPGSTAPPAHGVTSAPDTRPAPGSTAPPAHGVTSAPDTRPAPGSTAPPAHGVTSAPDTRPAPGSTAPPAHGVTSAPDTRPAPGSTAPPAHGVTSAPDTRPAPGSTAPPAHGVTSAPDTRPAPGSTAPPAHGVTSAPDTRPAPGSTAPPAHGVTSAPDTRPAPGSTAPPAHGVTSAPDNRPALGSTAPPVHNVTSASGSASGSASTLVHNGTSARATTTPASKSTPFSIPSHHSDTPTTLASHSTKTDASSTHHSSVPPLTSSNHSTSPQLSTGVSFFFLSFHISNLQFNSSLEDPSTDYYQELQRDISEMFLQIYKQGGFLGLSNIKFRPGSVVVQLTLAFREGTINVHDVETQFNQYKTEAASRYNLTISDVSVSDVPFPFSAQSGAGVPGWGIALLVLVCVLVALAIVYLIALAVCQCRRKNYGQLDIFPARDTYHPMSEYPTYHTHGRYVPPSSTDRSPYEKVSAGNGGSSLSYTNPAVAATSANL
test-protocol: FACS titration, HCT116/MUC1 cells, antibody at 3.906 nM
Some binders, each annotated with its measured geometric mean.
// return a plain number; no unit text

Previously resolved entries follow.
[[record]]
binder = "VH2 + VL1 (antibody, V domains shown, Humanized IgG expressed in HEK293; also called humanized antibody VH2+VL1) VH: QVQLVQSGAEVKKPGASVKVSCKASGYAFSNFWMNWVRQAPGQGLEWMGQIYPGDGDTNYNGKFKGRVTMTRDTSTSTVYMELSSLRSEDTAVYYCARSYYRSAWFAYWGQGTLVTVSS VL: EIVLTQSPDFQSVTPKEKVTITCRASQSIGTSIHWYQQKPDQSPKLLIKYASESISGVPSRFSGSGSGTDFTLTINSLEAEDAATYYCQQSNNWPLTFGQGTKVEIK"
recorded_result = 5.23

[[record]]
binder = "VH3 + VL1 (antibody, V domains shown, Humanized IgG expressed in HEK293; also called humanized antibody VH3+VL1) VH: QVQLVQSGAEVKKPGASVKVSCKASGYAFSNFWMNWVRQAPGQGLEWMGQIYPGDGDTNYNGKFKGRVTMTRDTSISTAYMELSRLRSDDTAVYYCARSYYRSAWFAYWGQGTLVTVSS VL: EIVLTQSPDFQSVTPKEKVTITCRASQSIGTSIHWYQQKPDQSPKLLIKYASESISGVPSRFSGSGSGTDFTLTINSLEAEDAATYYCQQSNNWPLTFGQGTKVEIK"
recorded_result = 16.3

[[record]]
binder = "VH4 + VL1 (antibody, V domains shown, Humanized IgG expressed in HEK293; also called humanized antibody VH4+VL1) VH: QVQLVQSGAEVKKPGATVKISCKVSGYAFSNFWMNWVQQAPGKGLEWMGQIYPGDGDTNYNGKFKGRVTITADTSTDTAYMELSSLRSEDTAVYYCARSYYRSAWFAYWGQGTLVTVSR VL: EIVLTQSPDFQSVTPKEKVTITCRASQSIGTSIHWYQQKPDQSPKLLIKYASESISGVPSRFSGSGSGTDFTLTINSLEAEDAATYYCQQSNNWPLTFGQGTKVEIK"
recorded_result = 4.22


Input: Give me measured geometric mean, please, for this binder: VH5 + VL4 (antibody, V domains shown, Humanized IgG expressed in HEK293; also called humanized antibody VH5+VL4) VH: EVQLVQSGAEVKKPGESLKISCKGSGYAFSNFWMNWVRQMPGKGLEWMGQIYPGDGDTNYNGKFKGQVTISADKSISTAYLQWSSLKASDTAMYYCARSYYRSAWFAYWGQGTLVTVSL VL: AIQLTQSPSSLSASVGDRVTITCRASQSIGTSIHWYQQKPGKAPKLLIYYASESISGVPSRFSGSGSGTDFTLTISSLQPEDFATYYCQQSNNWPLTFGGGTKVEIK
Output: 15.3
